Data provenance is the supplement of paper PMC11451515.

System: SEM cells
Experiment: cell viability relative to DMSO control; higher = less cytotoxic
Settings: RPMI 5 mM glucose + 10% dialyzed FBS; 48 h; 0.19 µM
measuredEndpoint: cell viability (%)
Give bare numbers, in %.

I would be grateful if you could provide cell viability for each of the following entries.
1. CO[C@H]1C[C@@H]2CC[C@@H](C)[C@@](O)(O2)C(=O)C(=O)N2CCCC[C@H]2C(=O)O[C@H]([C@H](C)C[C@@H]2CC[C@@H](OC(=O)C(C)(CO)CO)[C@H](OC)C2)CC(=O)[C@H](C)/C=C(\C)[C@@H](O)[C@@H](OC)C(=O)[C@H](C)C[C@H](C)/C=C/C=C/C=C/1C
2. NC(=O)c1ncn([C@@H]2O[C@H](CO)[C@@H](O)[C@H]2O)n1
3. CC(C)n1nc(-c2ccc3oc(N)nc3c2)c2c(N)ncnc21

(A)
[83.1, 108, 44]
